- Assay: soluble on expression in E. coli; label from the status in PepcDB or PDB records
Quantity name: soluble on expression in E. coli

Ordered residues | Result
MKEKIPFYNEKEFHDMVKKTKKGTFSGWYIINKNNNSVEFSGSFNRQFKLNKPVIPVNTEYVTRKEFNEYKDSNDQRLTKIETELKSQGQRIQVVEDKVDRLTEVVMVQSQQIKTQGEAMNARMDRFESLVLKSLESIGNTLTDFGKRLDVIETRLDKIDPPK | soluble
DALEVAEKVTAVIFDKTGTLTKLKESAKPAVQELKRMGIKVGMITGDNWRSAEAISRELNLDLVIAEVLPHQKSEEVKKLQAKEVVAFVGDGINDAPALAQADLGIAVGSGDIVLIRDDLRDVVAAIQ | soluble
MVMIISTMEPQVSNGPTSNTSNGPSSNNRNCPSPMQTGATTDDSKTNLIVNYLPQNMTQEEFRSLFGSIGEIESCKLVRDKITGQSLGYGFVNYIDPKDAEKAINTLNGLRLQTKTIKVSYARPSSASIRDANLYVSGLPKTMTQKELEQLFSQYGRIITSRILVGQVTGVSRGVGFIRFDKRIEAEEAIKGLNGQKPSGATEPITVKFANNPSQKSSQALLSQLYQSPNRRYPGPLHHQAQRFRLDNLLNMAYGVKRFSPITIDGMTSLVGMNIPGHTGTGWCIFVYNLSPDSDESVLWQLFGPFGAVNNVKVIRDFNTNKCKGFGFVTMTNYDEAAMAITSLNGYRLGDRVLQVSFKTNKAHKS | soluble

Ref: the DeepSol protein solubility set
